# Tested on: Suit-2
# assay-name: In vitro cell viability assay (Cell Titer Glo), pancreatic cancer Suit-2
# Format: cell-based
# experimental-parameters: Suit-2, CSC enriching serum free medium, non-adherent plates, 72 h; read-out: Cell viability (IC50) Suit-2 CSC
# Experimental: Breast cancer SUM159 was obtained from Asterand and grown according to supplier's recommendation. All other cell lines were obtained from ATCC and cultured in standard cell culture conditions with complete cell culture medium containing 10% FBS. Cancer cells were seeded into optically clear tissue culture-treated black 96-well plates (for adherent cells) or low-attachment 96-well plates (for cancer stem cells) at 2,000-5000 cells/50 μL of media per well. […]
The following compounds are listed with their measured IC50 values.
Note: unit nM is implicit; provide only the numeric part.

Worked cases, IC50 given:
# compound, target-or-system, IC50, nM
records = [
    ("CN1CCN(c2ccc(-c3nc4cc(Cl)c(Cl)cc4[nH]3)cc2F)CC1 [Compound 27]", "Suit-2", 1990),
    ("Oc1c(Cl)cccc1-c1nc2cc(C(F)(F)F)ccc2[nH]1 [Compound 5]", "Suit-2", 1150),
    ("Clc1cc2nc(-c3ccc(-n4ccnc4)cc3)[nH]c2cc1Cl [Compound 15]", "Suit-2", 1810),
    ("FC(F)(F)c1ccc2[nH]c(-c3ccc(N4CCCCC4)cc3)nc2c1 [Compound 29]", "Suit-2", 1420),
    ("FC(F)(F)c1cc(Cl)c2[nH]c(-c3ccc(N4CCCC4)cc3)nc2c1 [Compound 35]", "Suit-2", 240),
]

Now for another entry.
Form field IC50, entry Oc1ccc(F)cc1-c1nc2cc(Cl)c(F)cc2[nH]1 [Compound 3] : 1810

----------
# Tested on: S2VP10
# assay-name: In vitro cell viability assay (Cell Titer Glo), pancreatic cancer S2VP10
# Assay type: cell-based
# experimental-parameters: S2VP10, CSC enriching serum free medium, non-adherent plates, 72 h; read-out: Cell viability (IC50) S2VP10 CSC
# Procedure: Breast cancer SUM159 was obtained from Asterand and grown according to supplier's recommendation. All other cell lines were obtained from ATCC and cultured in standard cell culture conditions with complete cell culture medium containing 10% FBS. Cancer cells were seeded into optically clear tissue culture-treated black 96-well plates (for adherent cells) or low-attachment 96-well plates (for cancer stem cells) at 2,000-5000 cells/50 μL of media per well. […]
measured-metric: IC50

Use the examples below as a reference point.
# molecule-smiles, measured-metric, reported-result
measured = [
    ("Clc1cc2nc(-c3ccc(N4CCCCC4)cc3)[nH]c2cc1Cl", "IC50", "> 10 µM"),
    ("Clc1cc2nc(-c3ccc(N4CCCCC4)cc3)[nH]c2nc1Cl", "IC50", "> 10 µM"),
]

Let's switch to this compound now.
Input `Clc1cc2nc(-c3ccc(N4CCCC4)cc3)[nH]c2nc1Cl` . Output IC50: > 10 µM

----------
# Tested on: S2VP10
# assay-name: In vitro cell viability assay (Cell Titer Glo), pancreatic cancer S2VP10
# Type: cell-based
# experimental-parameters: S2VP10, adherent, complete medium 10% FBS, 72 h; read-out: Cell viability (IC50) S2VP10 Adherent
measured-metric: IC50

Recorded IC50 (compound `Oc1ccc(Cl)cc1-c1nc2cc(Cl)c(Cl)nc2[nH]1` ): 2240 nM

IC50 measured on `FC(F)(F)c1cc2nc(-c3ccc(N4CCCCC4)cc3)[nH]c2cc1Cl` = 9250 nM

// sample `c1cc2[nH]c(-c3ccc(N4CCCC4)cc3)nc2cn1` , its IC50 was 110 nM

----------
# System: S2VP10
# assay-name: In vitro cell viability assay (Cell Titer Glo), pancreatic cancer S2VP10
# Type: cell-based
# experimental-parameters: S2VP10, adherent, complete medium 10% FBS, 72 h; read-out: Cell viability (IC50) S2VP10 Adherent
pIC50: −log10 of the molar value.
measured-metric: pIC50

# molecule-smiles, target-or-system, pIC50
measured = [
    ("Clc1cc2nc(-c3ccc(N4CCCCC4)cc3)[nH]c2nc1Cl", "S2VP10", "< 5.00"),
    ("FC(F)(F)c1ccc2[nH]c(-c3ccc(N4CCCCC4)cc3)nc2c1", "S2VP10", "< 5.00"),
]

Now for the compound whose pIC50 we want.
The compound identified as `FC(F)(F)c1cc(Cl)c2[nH]c(-c3ccc(N4CCCCC4)cc3)nc2c1` registered its pIC50 at < 5.00

----------
Measured pIC50 by item
# System: S2VP10
# assay-name: In vitro cell viability assay (Cell Titer Glo), pancreatic cancer S2VP10
# Assay type: cell-based
# experimental-parameters: S2VP10, adherent, complete medium 10% FBS, 72 h; read-out: Cell viability (IC50) S2VP10 Adherent
pIC50 here: minus log base 10 of the concentration, concentration in moles per litre.

Worked examples, 2 molecules total:
# molecule, pIC50
data = [
    ("Oc1ccc(F)cc1-c1nc2c(Cl)cc(Cl)cc2[nH]1 [Compound 1]", 5.79),
    ("FC(F)(F)c1cc2nc(-c3ccc(N4CCCC4)cc3)[nH]c2cc1Cl [Compound 32]", 5.28),
]

We next turn to a different molecule, shown below.
# pIC50 (molecule: Oc1ccc(F)cc1-c1nc2cc(Cl)c(F)cc2[nH]1 [Compound 3] ) is 5.96

----------
# System: Suit-2
# assay-name: In vitro cell viability assay (Cell Titer Glo), pancreatic cancer Suit-2
# Type: cell-based
# experimental-parameters: Suit-2, CSC enriching serum free medium, non-adherent plates, 72 h; read-out: Cell viability (IC50) Suit-2 CSC
measured-metric: pIC50
To interpret pIC50, take it as minus log10 of a concentration measured in moles per litre.

Completed entries (count: 3):
# molecule, target-or-system, measured-metric, reported-result
rows = [
    ("FC(F)(F)c1cc(Cl)c2[nH]c(-c3ccc(N4CCCCC4)cc3)nc2c1 [Compound 36]", "Suit-2", "pIC50", 5.60),
    ("c1cc2nc(-c3ccc(N4CCCCC4)cc3)[nH]c2cn1 [Compound 30]", "Suit-2", "pIC50", 7.15),
    ("CN1CCN(c2ccc(-c3nc4ccc(F)cc4[nH]3)cc2)CC1 [Compound 19]", "Suit-2", "pIC50", 6.48),
]

Entry CN1CCN(c2ccc(-c3nc4ccncc4[nH]3)cc2)CC1 [Compound 20] ; pIC50 = 6.68
